Hello, the source for this data is the kinase profiling compilation of Christmann-Franck et al. (2016), in case you need it.

# Measured Target: MYLK3 (human) (UniProt Q32MK0)
# Sequence (Q32MK0 whole entry, looked up): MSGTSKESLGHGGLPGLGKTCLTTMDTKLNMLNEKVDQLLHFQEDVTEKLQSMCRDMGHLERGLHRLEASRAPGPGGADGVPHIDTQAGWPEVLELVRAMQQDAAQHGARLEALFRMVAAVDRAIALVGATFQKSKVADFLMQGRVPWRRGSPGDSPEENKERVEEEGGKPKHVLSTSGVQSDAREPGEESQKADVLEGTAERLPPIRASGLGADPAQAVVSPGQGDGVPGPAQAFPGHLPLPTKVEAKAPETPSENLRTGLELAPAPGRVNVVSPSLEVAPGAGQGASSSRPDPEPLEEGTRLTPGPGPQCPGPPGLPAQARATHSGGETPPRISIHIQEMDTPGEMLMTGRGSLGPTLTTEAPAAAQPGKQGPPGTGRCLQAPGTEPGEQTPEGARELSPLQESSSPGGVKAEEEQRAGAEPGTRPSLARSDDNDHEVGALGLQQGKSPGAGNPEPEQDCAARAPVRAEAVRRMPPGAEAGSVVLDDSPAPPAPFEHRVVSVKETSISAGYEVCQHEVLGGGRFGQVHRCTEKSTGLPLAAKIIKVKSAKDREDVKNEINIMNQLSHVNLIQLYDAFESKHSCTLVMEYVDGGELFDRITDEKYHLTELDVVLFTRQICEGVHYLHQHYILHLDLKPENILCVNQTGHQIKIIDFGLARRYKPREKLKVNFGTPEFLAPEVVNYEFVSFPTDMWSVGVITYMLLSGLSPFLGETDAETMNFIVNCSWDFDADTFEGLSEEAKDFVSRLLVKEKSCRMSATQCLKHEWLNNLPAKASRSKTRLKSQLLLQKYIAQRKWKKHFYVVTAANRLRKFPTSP
pKd: −log10 of the molar value.
Measure Name: pKd

1) CCOc1cc2ncc(C#N)c(Nc3ccc(F)c(Cl)c3)c2cc1NC(=O)/C=C/CN(C)C: < 5.00

----------
# Measured Target: MAP3K12 (human) (UniProt Q12852)
# Sequence (Q12852 whole entry, looked up): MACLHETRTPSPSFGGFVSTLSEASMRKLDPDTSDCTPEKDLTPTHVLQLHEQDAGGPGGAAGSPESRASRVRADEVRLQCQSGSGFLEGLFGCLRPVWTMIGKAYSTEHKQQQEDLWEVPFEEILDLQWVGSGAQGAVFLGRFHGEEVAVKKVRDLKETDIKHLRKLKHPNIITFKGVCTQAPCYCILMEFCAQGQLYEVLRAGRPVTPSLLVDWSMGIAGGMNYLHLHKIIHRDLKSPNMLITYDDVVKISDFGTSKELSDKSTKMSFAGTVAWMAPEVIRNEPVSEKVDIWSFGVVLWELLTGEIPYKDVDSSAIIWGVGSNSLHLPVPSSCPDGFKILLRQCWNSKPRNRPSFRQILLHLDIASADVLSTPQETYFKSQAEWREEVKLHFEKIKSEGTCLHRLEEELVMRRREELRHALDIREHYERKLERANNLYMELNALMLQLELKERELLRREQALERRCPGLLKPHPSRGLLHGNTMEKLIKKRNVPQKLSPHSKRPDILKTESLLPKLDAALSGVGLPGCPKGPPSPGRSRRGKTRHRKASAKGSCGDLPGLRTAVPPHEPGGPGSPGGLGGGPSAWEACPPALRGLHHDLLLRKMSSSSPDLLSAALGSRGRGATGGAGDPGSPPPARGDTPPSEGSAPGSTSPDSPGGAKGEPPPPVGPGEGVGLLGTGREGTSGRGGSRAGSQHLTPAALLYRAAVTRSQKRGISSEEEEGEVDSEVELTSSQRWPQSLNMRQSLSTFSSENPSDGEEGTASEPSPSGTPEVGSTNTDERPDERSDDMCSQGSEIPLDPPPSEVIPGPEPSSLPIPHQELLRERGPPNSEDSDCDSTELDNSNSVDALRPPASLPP
pKd: −log10 of the molar value.
Measure Name: pKd

1. COCC(=O)NC/C=C/c1ccc2ncnc(Nc3ccc(Oc4ccc(C)nc4)c(C)c3)c2c1: < 5.00

----------
Measured Kd by item
# Measured Target: ERBB4 (human)
# Assay: KINOMEscan competition binding
Measure Name: Kd

1) Oc1ccc(-c2nc(-c3ccc(F)cc3)c(-c3ccncc3)[nH]2)cc1: > 10 µM
2) NC(=O)c1ccc(-c2nc(-c3ccccn3)c(-c3ccc4c(c3)OCO4)[nH]2)cc1: > 10 µM
